experiment.description: Cytotoxicity against dog MDCK cells incubated for 48 hrs by MTT assay
Type: cell-based, Canis lupus familiaris
reported.property: CC50 at 48 h (nM)

{"structure.string": "CO/C1=C/C(C)=C/[C@@H](C)[C@H](O)[C@@H](C)C/C(C)=C/C=C/[C@H](OC)[C@@H]([C@@H](C)[C@@H](O)[C@H](C)C(=O)/C=C/[C@H](C)[C@H](O)C(C)C)OC1=O", "reported.property": "CC50 at 48 h", "value": 910}
{"structure.string": "CO/C1=C/C(C)=C/[C@@H](C)[C@H](O)[C@@H](C)C/C(C)=C/C=C/[C@H](OC)[C@@H]([C@@H](C)[C@@H](O)[C@H](C)[C@]2(O)C[C@H](OC(=O)/C=C/C(=O)NC3=C(O)CCC3=O)[C@@H](C)[C@H](C(C)C)O2)OC1=O", "reported.property": "CC50 at 48 h", "value": 1310}

---

CC50 at 48 h for assorted compounds
experiment.description: Cytotoxicity against dog MDCK cells incubated for 48 hrs by MTT assay
Format: cell-based, Canis lupus familiaris

{"compound": "CO/C1=C/C(C)=C/[C@@H](C)[C@H](O)[C@@H](C)C/C(C)=C/C=C/[C@H](OC)[C@@H]([C@@H](C)[C@@H](O)[C@H](C)[C@]2(OC)C[C@H](OC(=O)/C=C/C(=O)NC3=C(O)CCC3=O)[C@@H](C)[C@H](C(C)C)O2)OC1=O", "CC50 at 48 h": "240 nM"}
{"compound": "CO/C1=C\\C(C)=C\\[C@@H](C)[C@@H](O)[C@@H](C)C/C(C)=C/C=C/[C@H](OC)[C@@H]([C@@H](C)[C@@H](O)[C@H](C)[C@@]2(O)C[C@@H](O)[C@H](C)[C@@H](C(C)C)O2)OC1=O [BAFILOMYCIN A1]", "CC50 at 48 h": "1410 nM"}
{"compound": "CO/C1=C/C(C)=C/[C@@H](C)[C@H](O)[C@@H](C)C/C(C)=C/C=C/[C@H](OC)[C@@H]([C@@H](C)[C@@H](O)[C@H](C)[C@]2(O)C[C@H](OC)[C@@H](C)[C@H](C(C)C)O2)OC1=O", "CC50 at 48 h": "190 nM"}
{"compound": "CO/C1=C/C(C)=C/[C@@H](C)[C@H](O)[C@@H](C)C/C(C)=C/C=C/[C@H](OC)[C@@H]([C@@H](C)[C@@H](O)[C@H](C)C(=O)/C=C/C(C)=C/C(C)C)OC1=O", "CC50 at 48 h": "3100 nM"}
